Test: Pharmacokinetics after intravenous and oral administration in rats
Assay type: in vivo
Details: rat, plasma, iv dosing, dose 1 mg/kg, read-out: Vss
Reported Vd values follow for various molecules

MOLECULE: CNC(=O)N[C@H]1COC2C1OC[C@H]2Nc1nc(Nc2cnn(C)c2)ncc1Cl (stereo partly shown)
Vd / L/kg: 0.55

MOLECULE: CC(C)CS(=O)(=O)N[C@H]1COC2C1OC[C@H]2Nc1nc(Nc2cnn(C)c2)ncc1Cl (stereo partly shown)
Vd / L/kg: 0.63

MOLECULE: CC(C)=CS(=O)(=O)N[C@H]1COC2C1OC[C@H]2Nc1nc(Nc2cnn(C)c2)ncc1Cl (stereo partly shown)
Vd / L/kg: 1.75

MOLECULE: CC(CS(=O)(=O)N[C@H]1COC2C1OC[C@H]2Nc1nc(Nc2cnn(C)c2)ncc1Cl)C(F)(F)F (stereo partly shown)
Vd / L/kg: 1.22

MOLECULE: Cn1cc(Nc2ncc(Cl)c(N[C@@H]3COC4C3OC[C@@H]4Nc3ccc(C#N)cn3)n2)cn1 (stereo partly shown)
Vd / L/kg: 0.26

MOLECULE: Cn1cc(Nc2ncc(Cl)c(N[C@@H]3COC4C3OC[C@@H]4N3CCOC3=O)n2)cn1 (stereo partly shown)
Vd / L/kg: 27.1

MOLECULE: Cn1cc(Nc2ncc(Cl)c(N[C@@H]3COC4C3OC[C@@H]4NS(=O)(=O)CC(C)(C)C)n2)cn1 (stereo partly shown)
Vd / L/kg: 0.82

MOLECULE: Cn1cc(Nc2ncc(Cl)c(N[C@@H]3COC4C3OC[C@@H]4NS(=O)(=O)C(C)(C)C)n2)cn1 (stereo partly shown)
Vd / L/kg: 1.4

MOLECULE: Cn1cc(Nc2ncc(Cl)c(N[C@@H]3COC4C3OC[C@@H]4NS(=O)(=O)CC3CC(F)C3)n2)cn1 (stereo partly shown)
Vd / L/kg: 1.07

MOLECULE: CCC(C)CS(=O)(=O)N[C@H]1COC2C1OC[C@H]2Nc1nc(Nc2cnn(C)c2)ncc1Cl (stereo partly shown)
Vd / L/kg: 0.57

MOLECULE: Cn1cc(Nc2ncc(Cl)c(N[C@@H]3COC4C3OC[C@@H]4NS(=O)(=O)CC3CC3)n2)cn1 (stereo partly shown)
Vd / L/kg: 0.83

MOLECULE: Cn1cc(Nc2ncc(Cl)c(N[C@@H]3COC4C3OC[C@@H]4NS(=O)(=O)CC(F)(F)F)n2)cn1 (stereo partly shown)
Vd / L/kg: 0.85

MOLECULE: Cn1cc(Nc2ncc(Cl)c(N[C@H]3COC4C3OC[C@H]4NS(=O)(=O)N3CCCC3)n2)cn1 (stereo partly shown)
Vd / L/kg: 1.54

MOLECULE: Cn1cc(Nc2ncc(Cl)c(N[C@@H]3COC4C3OC[C@@H]4NS(=O)(=O)N3CCOCC3)n2)cn1 (stereo partly shown)
Vd / L/kg: 23.5

MOLECULE: Cn1cc(Nc2ncc(Cl)c(N[C@@H]3COC4C3OC[C@@H]4NS(=O)(=O)CC3CCC3)n2)cn1 (stereo partly shown)
Vd / L/kg: 0.71

MOLECULE: CC(C)CS(=O)(=O)N[C@@H]1COC2C1OC[C@@H]2Nc1nc(Nc2cnn(C)c2)ncc1Cl (stereo partly shown)
Vd / L/kg: 2.56

----------
Reported Clearance (CL) after iv dosing values follow for various molecules
Assay: Pharmacokinetics after intravenous and oral administration in rats
Assay type: in vivo
Settings: iv dosing, dose 1 mg/kg

MOLECULE: Cn1cc(Nc2ncc(Cl)c(N[C@@H]3COC4C3OC[C@@H]4NS(=O)(=O)CC(C)(C)C)n2)cn1 (stereo partly shown)
Clearance (CL) after iv dosing (mL/min/kg): 24.2
//
MOLECULE: Cn1cc(Nc2ncc(Cl)c(N[C@@H]3COC4C3OC[C@@H]4NS(=O)(=O)CC3CCCC3)n2)cn1 (stereo partly shown)
Clearance (CL) after iv dosing (mL/min/kg): 24.8
//
MOLECULE: Cn1cc(Nc2ncc(Cl)c(N[C@@H]3COC4C3OC[C@@H]4NS(=O)(=O)CC(C)(F)F)n2)cn1 (stereo partly shown)
Clearance (CL) after iv dosing (mL/min/kg): 17
//
MOLECULE: CCC(C)CS(=O)(=O)N[C@H]1COC2C1OC[C@H]2Nc1nc(Nc2cnn(C)c2)ncc1Cl (stereo partly shown)
Clearance (CL) after iv dosing (mL/min/kg): 23.2
//
MOLECULE: CC(CS(=O)(=O)N[C@H]1COC2C1OC[C@H]2Nc1nc(Nc2cnn(C)c2)ncc1Cl)C(F)(F)F (stereo partly shown)
Clearance (CL) after iv dosing (mL/min/kg): 30.3
//
MOLECULE: Cn1cc(Nc2ncc(Cl)c(N[C@@H]3COC4C3OC[C@@H]4NS(=O)(=O)CC3CCC3)n2)cn1 (stereo partly shown)
Clearance (CL) after iv dosing (mL/min/kg): 18.8
//
MOLECULE: CNC(=O)N[C@H]1COC2C1OC[C@H]2Nc1nc(Nc2cnn(C)c2)ncc1Cl (stereo partly shown)
Clearance (CL) after iv dosing (mL/min/kg): 42
//
MOLECULE: Cn1cc(Nc2ncc(Cl)c(N[C@H]3COC4C3OC[C@H]4NS(=O)(=O)CC(F)(F)F)n2)cn1 (stereo partly shown)
Clearance (CL) after iv dosing (mL/min/kg): 38.8
//
MOLECULE: CC(CF)CS(=O)(=O)N[C@H]1COC2C1OC[C@H]2Nc1nc(Nc2cnn(C)c2)ncc1Cl (stereo partly shown)
Clearance (CL) after iv dosing (mL/min/kg): 34.2
//
MOLECULE: Cn1cc(Nc2ncc(Cl)c(N[C@@H]3COC4C3OC[C@@H]4NS(=O)(=O)CC3CC3)n2)cn1 (stereo partly shown)
Clearance (CL) after iv dosing (mL/min/kg): 30.3
//
MOLECULE: Cn1cc(Nc2ncc(Cl)c(N[C@@H]3COC4C3OC[C@@H]4N3CCCC3=O)n2)cn1 (stereo partly shown)
Clearance (CL) after iv dosing (mL/min/kg): 10.2
//
MOLECULE: Cn1cc(Nc2ncc(Cl)c(N[C@@H]3COC4C3OC[C@@H]4NS(=O)(=O)Cc3ccccc3)n2)cn1 (stereo partly shown)
Clearance (CL) after iv dosing (mL/min/kg): 44.8
//
MOLECULE: Cn1cc(Nc2ncc(Cl)c(N[C@@H]3COC4C3OC[C@@H]4NS(=O)(=O)CC(C)(C)C#N)n2)cn1 (stereo partly shown)
Clearance (CL) after iv dosing (mL/min/kg): 37.8
//
MOLECULE: CC(C)=CS(=O)(=O)N[C@H]1COC2C1OC[C@H]2Nc1nc(Nc2cnn(C)c2)ncc1Cl (stereo partly shown)
Clearance (CL) after iv dosing (mL/min/kg): 35
//
MOLECULE: Cn1cc(Nc2ncc(Cl)c(N[C@@H]3COC4C3OC[C@@H]4NS(=O)(=O)C3CC3)n2)cn1 (stereo partly shown)
Clearance (CL) after iv dosing (mL/min/kg): 23.7
//
MOLECULE: Cn1cc(Nc2ncc(Cl)c(N[C@H]3COC4C3OC[C@H]4NS(=O)(=O)N3CCCC3)n2)cn1 (stereo partly shown)
Clearance (CL) after iv dosing (mL/min/kg): 53.8
